apparent Kd listing for selected sequences.
System: MS2 coat protein
Test method notes: apparent Kd, MS2 coat protein; higher = weaker binding; RNA-MaP array
Particulars: ligand present: flavin mononucleotide; designed as: OFF switch for flavin mononucleotide
Recorded metric: apparent Kd (nM)

INSERT INTO results (monomer_sequence, units_symbol, measurement) VALUES
  ('AAAUUAAUCAGAGGAUAUAGACAUGAGGAUCACCCAUGUACCAAAAUCGCGAAGAAGGAUCCGUGCUAGAAGGCAGAAUACAUA', 'nM', 8.65),
  ('CUAAAGGAUGAAGGAUAUUUGAGUGACACGCAGAAAGAAGGUCAAGCUUACAUGAGGAUCACCCAUGUGCGUGAGUGCAGGUGC', 'nM', 13.3),
  ('UCGUCACAUGUUAGGAUAUUGCUAGGAUCCUAGAACAAGAAGGAACAUGAGGAUCACCCAUGUCAGUGAAUCAU', 'nM', 36),
  ('CGAGUCUAGGAGAAGGCAUACAUGAGGAUCACCCAUGUCAAAGGGCACGUAACGAUAAUCCACCAUGAGGAUAUCCUGUUUAGA', 'nM', 21.7);

---

Tested on: MS2 coat protein
Test method notes: apparent Kd, MS2 coat protein; higher = weaker binding; RNA-MaP array
Particulars: ligand present: flavin mononucleotide; designed as: OFF switch for flavin mononucleotide
Recorded metric: apparent Kd

INSERT INTO measurements (monomer_sequence, measurement) VALUES
  ('CACGAUACUACAGGAUAUGCCGGUUACCAAUCUGCAGAAGGGUAGAUUAGUCUAACAUGAGGAUCACCCAUGUACCUCUCAUGU', '248 nM'),
  ('CAUGCUUGCGAGGAUAUAAGGUUCUCCCUGUUCUUAGAAGGCGCAACAUGAGGAUCACCCAUGUUCCUACCGAA', '283 nM'),
  ('UUCAUGUUAGGAUAUAGUGUAAGAGCGGGCGGGACUCUAUUCUAGAAGGAACAUGAGGAUCACCCAUGUUAAGG', '124 nM'),
  ('AUUAGACAAGGAUAUACAAGUCGUAUCGGCGCUGGGUGUAUACAUGAGGAUCACCCAUGUAGAAGGUGUGCUAU', '190 nM'),
  ('UUACAGAAAGGAUAUACAUGAGGAUCACCCAUGUAGUAUGAGUUGGUGAGAGUUCGUGGUAGAAGGUUCCGCAA', '55.2 nM'),
  ('ACAUCGAGGCGAGGAUAUAUGACAUGAGGAUCACCCAUGUCUGCGUGAUCGUCGAACAAAUGUUCAUAGAAGGCGCUAGAAAUG', '20.6 nM'),
  ('AUACACAGAGUUAGGAUAUCUACAUAAAACAAAAUAGAGAAGGAACAUGAGGAUCACCCAUGUAAUGAUCAAAC', '9.45 nM');

---

apparent Kd listing for selected sequences.
Test system: MS2 coat protein
Test method notes: apparent Kd, MS2 coat protein; higher = weaker binding; RNA-MaP array; FMN 200 µM where present
Particulars: designed as: OFF switch for flavin mononucleotide; no ligand
Recorded metric: apparent Kd (nM)

INSERT INTO results (monomer_sequence, recorded_metric, measurement) VALUES
  ('ACAUGAGGAUCACCCAUGUUAUCCGGGACUUCAAUUGUAUCUAGAAGGCUGUCUGCUUGUUAGUCAGAGGAUAUAGAUUCAAAU', 'apparent Kd', 12.4),
  ('AAACCGUGUGGAGGAUAUGCAGUUGAGGUAAGGCGGCAGCUCUAUACGACAGCAGAAGGCCACAUGAGGAUCACCCAUGUAGGU', 'apparent Kd', 122),
  ('GGAUAGUACAGAGGAUAUACGUGCUAGAGAUACUAGCAAAAUUUCCUCACAUGAGGAUCACCCAUGUAGAAGGCUGUCCUAUCG', 'apparent Kd', 5.94),
  ('AUCCGGCGUGUAGGAUAUGGAAAAAAUUAGGAUCCAGAAGGACAUGAGGAUCACCCAUGUACAUGUAAACAGUCAUCACCGGAA', 'apparent Kd', 33.5),
  ('CUCGGACAUGAGGAUCACCCAUGUGAGGAUAUGGCGCUAUCGUCAUUAGACGAUUGCGCCAGAAGGCACAAAUG', 'apparent Kd', 85.2),
  ('ACUAUACGAGGAUAUACUGUCGGGCCUCAGACAUAAAUAAGACAUGAGGAUCACCCAUGUAGAAGGCGUUUACU', 'apparent Kd', 52.6),
  ('ACAUUGCGAGGAUAUACAUGAGGAUCACCCAUGUGGUAGUGGAUACGGUAGGGCUAGUGUAGAAGGUGUCAUGG', 'apparent Kd', 128);

---

Tested on: MS2 coat protein
Test method notes: apparent Kd, MS2 coat protein; higher = weaker binding; RNA-MaP array
Particulars: ligand present: flavin mononucleotide; designed as: ON switch for flavin mononucleotide
apparent Kd listing for selected sequences.
Recorded metric: apparent Kd (nM)

INSERT INTO measurements (monomer_sequence, measurement) VALUES
  ('UAAGUACGACAGAAGGGAUGAAAUUAUAACAAAUCAGGAUAUGUGAGUUACCAAUGCAAGCAUUACAUGAGGAUCACCCAUGUG', 10.1),
  ('GUGAAGAUCCUAGGAUAUGAGACACCCGUAAGCUCAGAAGGAGGACGCGUAGAGGGUAACAUGAGGAUCACCCAUGUGAGUAAG', 12.2),
  ('ACUCUAGAAUAGAAGGCCUGAGGAAGUAGUAAAGGAGGAUAUAUCAUACGAAAUUCACAUGAGGAUCACCCAUGUUGCGCAGAC', 12.4),
  ('AUUACAAGCACAGGAUAUAACAGUUGGUUCACAUGAGGAUCACCCAUGUAGCAUUGGGAAGUAGCUUAGAAGGGUGAGGUGGUU', 107),
  ('CCAUGCGAUAUAGUGAUACAUGAGGAUCACCCAUGUAAAGUGAGAAGGCCAAAUUAAUACUAAGUGGAGGAUAUCAUCGUGAGC', 20.7),
  ('CCAAUAUCUAUAGGAUAUCAAUGACCAAACUGAACAUGAGGAUCACCCAUGUAGUGAGUGACUUAUGAGAAGGAUAGACGUACC', 22.9),
  ('ACAGUACAUGAGGAUCACCCAUGUAGAAGAUGCUCAGGAUAUUGUGAGUCAGGUUAUGUACAAGAAGGGAGGCACG', 14.1),
  ('CACGAGAACACUCAGGAUAUGACAAACAAGACAUGAGGAUCACCCAUGUGAAAUUACGGGUGCAAACAGAAGGGAGAAACUUACAC', 47.5),
  ('GGCGCUACGCCGGUACAUGAGGAUCACCCAUGUCCAUAUGUAAGAAGGUCUGGCGGGACGACAAAGAAGGAUAUUACAGAUUGC', 24.9),
  ('AGACAUGGCGGAUAGGAUAUGUGGGCGUCUACAUGAGGAUCACCCAUGUUGCUCGGAUGCAAUCUACAGAAGGAUCGACCCAGUGC', 16.1),
  ('GCCAUAAUCUGAGGAUAUAGAGAGAUAAGGAAGCACAUGAGGAUCACCCAUGUCCGUGGUAUAGGCAAGAAGGCAGCUGGAAUC', 15.7),
  ('CUCAGUGUGUAGAAGGUUUGCAUAGAAACAUCAAAAGGAUAUACAUGGUGAAGCCUUGAAACAUGAGGAUCACCCAUGUCUACG', 392),
  ('CCAUGACAUGAGGAUCACCCAUGUGGGUGCAGACAAGGAUAUAGUAAGAAUAGGAUAGAUCUAGAAGGUGUCAUUA', 282),
  ('GUCAAAUGUCAGAAGGUAGUGAUGUACUAAGGCUAAGGAUAUGAAGAAAAGAAAAUUACCGUUGACAUGAGGAUCACCCAUGUC', 9.86),
  ('AUAUCAGGGUAGAAGGCAGCAUCAACAUGAGGAUCACCCAUGUAUAGGCACGUAGCCGCACGUGCUGAGGAUAUACGUUAUAAU', 6.41),
  ('UCAAUUGAGGUCAAGGAUAUCUAGAAACAGACAUGAGGAUCACCCAUGUGCACAGCAUAAACGAGAGAGAAGGUGAGGCAUAUUGA', 26.5),
  ('GGUCAACGAUUUUACAUGAGGAUCACCCAUGUUACGGUCGCCGAGGAUAUGUCAGGAUUAUCACAACAGAAGGCGGAAGACACC', 9.4),
  ('UAUCGAAGGUUUAAGGAUAUCGGCAGGCUCACAUGAGGAUCACCCAUGUCGCGAACAUCGCGCUACGAGAAGGUAAUCUUGAUGCA', 24.3),
  ('CCGCAUAUGUGCCCAAUAUAACAUGAGGAUCACCCAUGUGGUAGAAGGAAUGCUCACGGCUCUCAUUAGGAUAUACCAGACUAU', 17.5),
  ('CUUUAACAUGAGGAUCACCCAUGUCCGAUGAAUUUAGGAUAUCGCAUUGGUCGUAUGAGGCGAGAAGGAAAUUGUC', 12.8);

FYI, the data here is from the EternaBench riboswitch data.
